System: rhythmic bladder contractions induced by substance P
procedure_summary: Inhibitory effect on the rhythmic bladder contractions induced by substance P in anesthetized rats
Type: in vivo, rat
condition: time during which frequency of rhythmic contraction was completely inhibited, 0.25 mg/kg of the compound, substance P infusion
Protocol: Inhibitory effect on the rhythmic bladder contractions induced by substance P in anesthetized rats For the experiments, Sprague-Dawley female rats (9 to 12 weeks old) weighing between 200 to 300 g were used. After urethane anesthetization (subcutaneously administered with a dose of 1.2 g/kg), cannulae were placed in both right and left femoral veins. One intravenous catheter was used for administration of compounds, and the other was for the substance P (0.33 μg/kg/min) infusion. […]
assay_endpoint: 100% inhibition time range

Can you look up 100% inhibition time range on rhythmic bladder contractions induced by substance P for COc1cc(-c2oc(-c3ccc(F)cc3)nc2CC(=O)O)ccc1O ?
C (A≧20>B≧10>C (minute))

Can you look up 100% inhibition time range on rhythmic bladder contractions induced by substance P for CN(C)c1ncc(-c2nc(-c3ccc(Cl)cc3)c(CC(=O)O)s2)cn1 ?
A (A≧20>B≧10>C (minute))

Can you look up 100% inhibition time range on rhythmic bladder contractions induced by substance P for O=C(O)Cc1nc(-c2ccc(F)cc2)oc1-c1ccc(C(F)(F)F)cc1 ?
B (A≧20>B≧10>C (minute))

Can you look up 100% inhibition time range on rhythmic bladder contractions induced by substance P for O=C(O)Cc1nc(-c2cc3ccccc3o2)oc1-c1ccc(Cl)s1 ?
B (A≧20>B≧10>C (minute))

Can you look up 100% inhibition time range on rhythmic bladder contractions induced by substance P for CC(C)c1ccc(-c2oc(-c3ccc(F)cc3)nc2CC(=O)O)cc1 ?
B (A≧20>B≧10>C (minute))

Give 100% inhibition time range for each listed item.
1. Cc1nc2cc(-c3nc(CC(=O)O)c(-c4ccc(Cl)s4)o3)ccc2s1
2. O=C(O)Cc1nc(-c2ccc3ncccc3c2)oc1-c1ccc(Cl)s1
3. Cc1cc(-c2nc(CC(=O)O)c(-c3ccc(Cl)s3)o2)sc1C
4. COc1ccc(-c2nc(-c3ccc(Cl)s3)c(CC(=O)O)s2)cc1
5. O=C(O)Cc1nc(-c2ccc(F)cc2)oc1-c1csc2ccccc12
6. O=C(O)Cc1nc(-c2ccc3c(c2)OCCO3)oc1-c1ccc(Cl)s1

1: C (A≧20>B≧10>C (minute)); 2: B (A≧20>B≧10>C (minute)); 3: A (A≧20>B≧10>C (minute)); 4: A (A≧20>B≧10>C (minute)); 5: C (A≧20>B≧10>C (minute)); 6: C (A≧20>B≧10>C (minute))

====

Tested on: rhythmic bladder contractions induced by substance P
procedure_summary: Inhibitory effect on the rhythmic bladder contractions induced by substance P in anesthetized rats
Format: in vivo, rat
condition: time during which frequency of rhythmic contraction was completely inhibited, 0.25 mg/kg of the compound, substance P infusion
assay_endpoint: 100% inhibition time range

Please report the recorded 100% inhibition time range for CN(C)c1ccc(-c2nc(CC(=O)O)c(-c3ccc(Cl)s3)s2)cn1 .
B (A≧20>B≧10>C (minute))

Please report the recorded 100% inhibition time range for O=C(O)Cc1nc(-c2cc3ccccc3s2)oc1-c1ccc(Cl)c(F)c1 .
B (A≧20>B≧10>C (minute))

Please report the recorded 100% inhibition time range for COc1ccc(-c2nc(-c3ccc(Cl)cc3)c(CC(=O)O)s2)cc1 .
B (A≧20>B≧10>C (minute))

====

Structures can show the parent of a compound that is named as a salt.
assay_endpoint: melting point

Solved entries (count: 3):
Please report the recorded melting point for CCOC(=O)Cc1nc(-c2ccc(COC(C)=O)cc2)oc1-c1ccc(Cl)s1 .
112 to 113 °C

Please report the recorded melting point for CCc1nc(-c2ccc(C)nc2)[nH]c1-c1ccccc1 (as salt: HCl) .
248 to 251 °C

Please report the recorded melting point for CCCc1nc(-c2ccc(F)cc2)[nH]c1-c1ccc(SC)cc1 (as salt: HCl) .
174 to 176 °C

Now look at this entry.
Please report the recorded melting point for O=C(O)Cc1nc(-c2ccc(F)cc2)oc1-c1ccccc1 (as salt: Na) .
> 300 °C

====

Can you tell me melting point for the items I'm about to list?
Structures can show the parent of a compound that is named as a salt.

Please report the recorded melting point for N#CCCc1nc(-c2ccc(F)cc2)[nH]c1-c1ccccc1 [Preparation example 62] .
176 to 178 °C

Please report the recorded melting point for Cc1ccc(-c2nc(CO)c(-c3cccnc3)[nH]2)cn1 (as salt: HCl) [Preparation example 114] .
266 to 269 °C

Please report the recorded melting point for CCCc1nc(-c2ccc(NC)cc2)[nH]c1-c1cccs1 (as salt: HCl) [Preparation example 3] .
175 to 180 °C

Please report the recorded melting point for CCc1nc(-c2ccc(F)cc2)[nH]c1-c1ccccc1 [Preparation example 61] .
169 to 170 °C

Please report the recorded melting point for CS(=O)(=O)Cc1nc(-c2ccc(F)cc2)oc1-c1ccsc1 [Preparation Example 623] .
208 to 210 °C

Give melting point for each listed item.
1. CCONC(=O)Cc1nc(-c2ccc(F)cc2)oc1-c1ccsc1 [Preparation Example 377]
2. CCOC(=O)c1sccc1-c1nc(CC)c(-c2cccnc2)[nH]1 [Preparation example 10]
3. CCc1nc(-c2ccc(F)cc2)[nH]c1-c1cncs1 (as salt: HCl) [Preparation example 86]
4. CCCc1nc(-c2ccncc2)[nH]c1-c1cccs1 (as salt: HCl) [Preparation example 6]
5. COc1ccc(-c2nc(CC(=O)O)c(-c3ccsc3)o2)cc1 [Preparation Example 200]
6. CCCc1c[nH]c(-c2ccc(F)cc2)n1 [Preparation example 76]
7. CNc1[nH]c(-c2ccc(F)cc2)nc1-c1ccccc1 (as salt: hydrochloride) [Preparation example 107]

1: 183 to 184 °C; 2: 127 to 129 °C; 3: 254 to 256 °C; 4: 275 to 280 °C; 5: 198 to 199 °C; 6: 168 to 170 °C; 7: 253 to 255 °C

====

Tested on: isolated rabbit urinary bladder
procedure_summary: Relaxation effect on potassium-induced contraction of isolated rabbit urinary bladder
Assay type: cell-based
condition: Oryctolagus cuniculus; 50% relaxation concentration; high-K+ (30 mM) pre-contracted rabbit bladder strips; relaxation as percentage of the maximum produced by 0.1 mM papaverine; read-out: EC50 value range
pEC50: −log10 of the molar value.
assay_endpoint: pEC50

Please report the recorded pEC50 for CN1CCc2cc(-c3nc(CC(=O)O)c(-c4ccc(Cl)s4)o3)ccc21 [Preparation Example 453] .
6.00 to 6.30

Please report the recorded pEC50 for O=C(O)Cc1nc(-c2ccc(F)cc2)oc1-c1ccc(Cl)c(Cl)c1 [Preparation Example 240] .
6.00 to 6.30

Now look at this entry.
Please report the recorded pEC50 for CCc1nc(-c2cccc(Cl)c2)[nH]c1-c1cccnc1 [Preparation example 13] .
≥ 6.30

====

System: isolated rabbit urinary bladder
procedure_summary: Relaxation effect on potassium-induced contraction of isolated rabbit urinary bladder
Type: cell-based
condition: Oryctolagus cuniculus; 50% relaxation concentration; high-K+ (30 mM) pre-contracted rabbit bladder strips; relaxation as percentage of the maximum produced by 0.1 mM papaverine; read-out: EC50 value range
Can you tell me EC50 for the items I'm about to list?

Can you look up EC50 on isolated rabbit urinary bladder for O=C(O)Cc1nc(-c2ccc3occc3c2)oc1-c1csc(Cl)c1 ?
≤ 500 nM

Can you look up EC50 on isolated rabbit urinary bladder for CCCc1nc(-c2ccc(F)cc2)[nH]c1-c1ccc(N(C)C)cc1 ?
1000 to 3000 nM

Can you look up EC50 on isolated rabbit urinary bladder for COc1ccc(-c2nc(CC(=O)O)c(-c3cccs3)o2)cc1 ?
1000 to 3000 nM

Give EC50 for each listed item.
1. O=C(O)Cc1nc(-c2ccccc2O)oc1-c1cccs1
2. O=C(O)Cc1nc(-c2cc3ccccc3s2)oc1-c1ccc(Cl)s1
3. Cc1cc(-c2nc(CC(=O)O)c(-c3ccc(Cl)s3)s2)sc1C
4. CCCc1nc(-c2ccccc2[N+](=O)[O-])[nH]c1-c1ccccc1
5. CSc1ccc(-c2nc(-c3ccc(Cl)s3)c(CC(=O)O)s2)cc1
6. CSc1ccc(-c2nc(CC(=O)[O-])c(-c3cccs3)o2)cn1.[Na+] [Preparation Example 366, acetic acid sodium salt]

500 to 1000 nM
500 to 1000 nM
≤ 500 nM
1000 to 3000 nM
≤ 500 nM
≤ 500 nM

====

Where a name gives a salt, the structure may show the parent alone.
assay_endpoint: melting point

Please report the recorded melting point for CCc1nc(-c2ccc(Cl)s2)oc1-c1cccnc1.Cl .
201 to 204 °C

Give melting point for each listed item.
1. CCOC(=O)Cc1nc(-c2cc3ccccc3s2)oc1-c1ccsc1
2. Fc1ccc(-c2nc(C3CCCCC3)c(-c3ccsc3)[nH]2)cc1
3. CCc1nc(-c2cccs2)[nH]c1-c1cccnc1 (as salt: HCl)
4. COCc1nc(-c2cccc(F)c2)[nH]c1-c1ccccc1 (as salt: HCl)
5. CCCc1nc(-c2ccc(C#N)cc2)[nH]c1-c1ccccc1 (as salt: HCl)

["155 to 156.5 °C", "171 to 173 °C", "215 to 217 °C", "185 to 188 °C", "258 to 260 °C"]

Give melting point for each listed item.
1. CCc1nc(-c2csc(Cl)c2)[nH]c1-c1cccnc1 (as salt: HCl)
2. CCc1nc(-c2ccc(F)cc2)[nH]c1-c1cncnc1 (as salt: HCl)
3. CCc1nc(-c2ccc(F)cc2)[nH]c1-c1nccs1 (as salt: HCl)
4. N#Cc1ccc(-c2ncc(-c3cccnc3)[nH]2)cc1 (as salt: HCl)
5. Fc1ccc(-c2ncc(-c3cccnc3)[nH]2)cc1 (as salt: HCl)

1: 205 to 207 °C; 2: 287 to 289 °C; 3: 215 to 218 °C; 4: 325 to 328 °C; 5: 192 to 195 °C

Give melting point for each listed item.
1. CCCc1nc(-c2cc3ccccc3o2)[nH]c1-c1ccccc1 (as salt: HCl)
2. N#Cc1ccc(-c2ncc(-c3ccccc3)[nH]2)cc1 (as salt: HCl)
3. COCc1[nH]c(-c2ccc(Cl)s2)nc1-c1cccnc1.Cl.Cl
4. CCc1nc(-c2ccc(F)cc2)[nH]c1Br (as salt: hydrochloride)
5. CCOC(=O)c1nc(-c2ccc(F)cc2)[nH]c1CC
6. CCCc1nc(-c2ccc[nH]2)[nH]c1-c1ccccc1 (as salt: HCl)
7. CCOC(=O)Cc1nc(-c2ccc(OC)c(F)c2)oc1-c1cccs1
8. CCc1nc(-c2csc(Br)c2)[nH]c1-c1cccnc1 (as salt: HCl)

1: 185 to 188 °C; 2: > 300 °C; 3: 245 to 248 °C (dec.); 4: 219 to 221 °C (dec.); 5: 197 to 198 °C; 6: 220 to 222 °C; 7: 117 to 117.5 °C; 8: 214 to 216 °C
